These data points were gathered from the supplement of paper PMC12042874.

- MEASUREMENT_PROTOCOL: amyloid nucleation score (Sup35N fusion, yeast selection) (log enrichment); library NNK1; higher = more nucleation; inactive = no reads after selection;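 note: zero at mode of non-aggregating sequences after 7 days selection at 30°C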
# label = MET if amyloid nucleation score >= 0.8 else NOT MET

Decide: amyloid nucleation score of IDSGRAKRLSHMIWISVRHG >= 0.8?
NOT MET

Request: VRAEVGQDRVGRM
NOT MET

Request: TSDRVVPFGSISWKGCSRVR
NOT MET

Request: ISALGF
MET

Request: AFNKAVMSDTQL
NOT MET

Request: INFCFKCWNKVWLDNFFLSS
NOT MET

Request: TDFMVGCVNMRRSESVWYC
NOT MET

Request: TGGFIFHGCAFYRMFSWLVD
MET

Request: FGLRYSMCHHGRGHLKWLYT
MET

Request: EGVVMRISWKNTNGHVYEKG
MET

Request: AGFVSVVVF
NOT MET

Request: LGLRGKKLRIINAPYTTGRN
NOT MET

Request: FRNLTVGAWRPMPGERMPIG
NOT MET

====

- MEASUREMENT_PROTOCOL: amyloid nucleation score (Sup35N fusion, yeast selection) (log enrichment); library NNK2; higher = more nucleation; inactive = no reads after selection
Assignment: determine reported amyloid nucleation score for the given substances.

Request the reported amyloid nucleation score associated with ILSTVTDSSCNIACSCNNN
8.36

Request: ENYFCSYWFCFSWALG
6.36

Request: VCACKIYKRHTLGSR
-0.573

Request: DLRLYILNL
6.56

Request: PSVSRLIESNFCSSIRFFTH
-1.04

Request: RFMHGTTCHTKYHRHLSTET
0.766

Request: NLVFKPFCEPSVVSV
0.099

Request: QSFNVCCWLGEMDVLYSSIT
9

Request: LDLSDHWACQIIGVL
0.394

Request: PRFIQGYILRNLCARMLKYS
-0.368

Request: TPIRVFGNYNSFHFCTMSS
8.3

Request: VVRMVHLSADFQGK
5.26

Request: GTRSGSSDV
0.31

Request: FDLNAREHYRASRGDTGTGH
1.16

Request: TFQSYRDESFSWSRLVSSQR
-0.477

Request: DSGRCFSFKWFCYFQHHHEV
2.18

Request: KSAQEF
0.839

====

- MEASUREMENT_PROTOCOL: amyloid nucleation score (Sup35N fusion, yeast selection) (log enrichment); library NNK2; higher = more nucleation; inactive = no reads after selection
# label = YES if amyloid nucleation score >= -0.1 else NO

Decide: amyloid nucleation score of STFLKATYRSHRRHW >= -0.1?
YES

Request: NCLYICVCGLCMFQKLRC
NO

Request: VNIVSIVYKGDNN
YES

Request: ESSYVRIQ
YES

Request: DLYMNEASTALGLGRGFLWG
NO

Request: SEVLNVFA
NO

Request: GDNYIS
YES

Request: NMKSWGSVV
NO

Request: ELPGPHSGVTPPACEWSTHP
YES

Request: GVYPICV
YES

Request: AVFTIFALVRS
YES

Request: GFCQASSWM
NO

Request: LRVTGNVGLSFGAKGLARPD
YES

Request: SYYISHYMSVWISLTDSGCY
NO

Request: SDGEISGEGY
NO

Request: TYKTGDACVLVLPPHMADPR
NO
